TESTED_TARGET: UniProtKB P21802
Sequence (P21802 22-821): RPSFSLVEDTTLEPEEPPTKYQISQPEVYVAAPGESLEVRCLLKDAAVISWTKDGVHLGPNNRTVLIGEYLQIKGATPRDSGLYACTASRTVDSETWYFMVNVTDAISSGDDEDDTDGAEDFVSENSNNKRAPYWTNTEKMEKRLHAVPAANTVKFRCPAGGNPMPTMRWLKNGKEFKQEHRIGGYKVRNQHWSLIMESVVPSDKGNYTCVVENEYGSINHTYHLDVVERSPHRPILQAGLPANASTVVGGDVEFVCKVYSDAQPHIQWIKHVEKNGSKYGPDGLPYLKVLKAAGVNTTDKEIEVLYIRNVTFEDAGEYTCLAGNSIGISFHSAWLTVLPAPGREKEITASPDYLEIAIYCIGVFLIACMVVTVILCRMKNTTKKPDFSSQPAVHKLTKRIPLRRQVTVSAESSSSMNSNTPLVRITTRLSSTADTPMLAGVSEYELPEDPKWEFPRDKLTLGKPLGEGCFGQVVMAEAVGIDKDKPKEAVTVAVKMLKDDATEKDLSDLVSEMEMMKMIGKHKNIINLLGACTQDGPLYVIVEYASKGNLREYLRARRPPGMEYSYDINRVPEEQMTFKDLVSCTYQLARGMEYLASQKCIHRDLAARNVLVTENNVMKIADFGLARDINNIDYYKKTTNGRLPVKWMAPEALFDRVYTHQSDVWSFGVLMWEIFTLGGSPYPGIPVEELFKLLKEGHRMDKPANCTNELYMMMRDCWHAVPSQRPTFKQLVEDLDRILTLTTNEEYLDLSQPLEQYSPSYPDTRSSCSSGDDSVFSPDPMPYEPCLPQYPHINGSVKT
ASSAY_EXPLANATION: FGFR2 kinase assay (fluorescence-based microfluidic mobility shift assay)
Type: biochemical
CONDITION_SET: wild type FGFR2 0.06 nM, 100 μM ATP, 80 minutes at room temperature; class symbols
// IC50 lookup, one value per entry

Input: Test system UniProtKB P21802; read-out IC50; what value for C=CC(=O)N1C[C@@H](n2nc(C#Cc3cc4c(cc3Cl)ncn4[C@@H]3CC3(F)F)c(C(N)=O)c2NC)C[C@@H]1COC (single isomer, unassigned) [Example 288] ?
Output: ≤ 100 nM

Input: Okay, and C=CC(=O)N1C[C@@H](n2nc(C#Cc3c(F)cc4[nH]c(C(F)(F)F)nc4c3F)c(C(N)=O)c2NC)C[C@@H]1COC [Example 46] ?
Output: ≤ 100 nM

Input: Repeat with C=CC(=O)N1C[C@@H](n2nc(C#Cc3cc4ncc(C5CC5)n4cc3F)c(C(N)=O)c2NC)C[C@@H]1COC [Example 283]
Output: ≤ 100 nM

Input: What about C=CC(=O)N1C[C@@H](n2nc(C#Cc3ccc4cccnc4c3)c(C(N)=O)c2NC)C[C@@H]1COC [Example 52] ?
Output: ≤ 100 nM

Input: Record: C=CC(=O)N1C[C@@H](n2nc(C#Cc3cc4c(cc3Cl)nc(C)n4C(F)F)c(C(N)=O)c2NC)C[C@@H]1COC [Example 95]
Output: 100 to 1000 nM

Input: Now consider C=CC(=O)N1C[C@@H](n2nc(C#Cc3c(F)cc4c(ncn4CC)c3F)c(C(N)=O)c2NC)C[C@@H]1COC [Example 29] .
Output: ≤ 100 nM
